Taken from patent US20250215012A1.

Target under test: IKZF2 (Homo sapiens (Human), UniProt Q96SW2+Q9UKS7)
Sequence (Q9UKS7 whole entry): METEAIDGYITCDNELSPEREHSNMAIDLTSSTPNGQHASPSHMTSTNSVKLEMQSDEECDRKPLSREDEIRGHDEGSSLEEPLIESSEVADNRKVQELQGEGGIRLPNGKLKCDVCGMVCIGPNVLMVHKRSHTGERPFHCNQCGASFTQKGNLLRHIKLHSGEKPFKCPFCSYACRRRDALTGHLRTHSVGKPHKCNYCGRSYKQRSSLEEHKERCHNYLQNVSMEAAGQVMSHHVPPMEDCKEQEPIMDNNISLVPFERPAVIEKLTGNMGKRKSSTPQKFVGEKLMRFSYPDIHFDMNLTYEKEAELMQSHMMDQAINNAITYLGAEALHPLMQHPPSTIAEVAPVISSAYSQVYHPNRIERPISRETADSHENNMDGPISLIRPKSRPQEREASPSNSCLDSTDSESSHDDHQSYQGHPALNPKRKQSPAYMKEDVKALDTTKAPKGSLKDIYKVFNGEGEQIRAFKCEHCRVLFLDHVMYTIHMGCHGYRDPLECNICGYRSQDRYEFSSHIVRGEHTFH
Sequence (Q96SW2 whole entry): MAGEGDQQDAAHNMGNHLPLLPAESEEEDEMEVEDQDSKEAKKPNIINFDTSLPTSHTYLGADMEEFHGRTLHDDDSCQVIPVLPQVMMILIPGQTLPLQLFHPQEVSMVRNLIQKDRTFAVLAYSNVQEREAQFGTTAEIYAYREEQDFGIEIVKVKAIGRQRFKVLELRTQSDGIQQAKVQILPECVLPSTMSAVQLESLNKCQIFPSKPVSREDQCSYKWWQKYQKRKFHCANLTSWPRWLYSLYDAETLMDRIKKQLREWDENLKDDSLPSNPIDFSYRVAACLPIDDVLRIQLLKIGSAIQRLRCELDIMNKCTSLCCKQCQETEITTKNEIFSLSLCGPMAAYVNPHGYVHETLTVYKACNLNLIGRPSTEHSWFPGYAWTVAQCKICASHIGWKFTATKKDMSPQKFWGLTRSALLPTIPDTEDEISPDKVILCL
Sequence (Q16531 whole entry partner): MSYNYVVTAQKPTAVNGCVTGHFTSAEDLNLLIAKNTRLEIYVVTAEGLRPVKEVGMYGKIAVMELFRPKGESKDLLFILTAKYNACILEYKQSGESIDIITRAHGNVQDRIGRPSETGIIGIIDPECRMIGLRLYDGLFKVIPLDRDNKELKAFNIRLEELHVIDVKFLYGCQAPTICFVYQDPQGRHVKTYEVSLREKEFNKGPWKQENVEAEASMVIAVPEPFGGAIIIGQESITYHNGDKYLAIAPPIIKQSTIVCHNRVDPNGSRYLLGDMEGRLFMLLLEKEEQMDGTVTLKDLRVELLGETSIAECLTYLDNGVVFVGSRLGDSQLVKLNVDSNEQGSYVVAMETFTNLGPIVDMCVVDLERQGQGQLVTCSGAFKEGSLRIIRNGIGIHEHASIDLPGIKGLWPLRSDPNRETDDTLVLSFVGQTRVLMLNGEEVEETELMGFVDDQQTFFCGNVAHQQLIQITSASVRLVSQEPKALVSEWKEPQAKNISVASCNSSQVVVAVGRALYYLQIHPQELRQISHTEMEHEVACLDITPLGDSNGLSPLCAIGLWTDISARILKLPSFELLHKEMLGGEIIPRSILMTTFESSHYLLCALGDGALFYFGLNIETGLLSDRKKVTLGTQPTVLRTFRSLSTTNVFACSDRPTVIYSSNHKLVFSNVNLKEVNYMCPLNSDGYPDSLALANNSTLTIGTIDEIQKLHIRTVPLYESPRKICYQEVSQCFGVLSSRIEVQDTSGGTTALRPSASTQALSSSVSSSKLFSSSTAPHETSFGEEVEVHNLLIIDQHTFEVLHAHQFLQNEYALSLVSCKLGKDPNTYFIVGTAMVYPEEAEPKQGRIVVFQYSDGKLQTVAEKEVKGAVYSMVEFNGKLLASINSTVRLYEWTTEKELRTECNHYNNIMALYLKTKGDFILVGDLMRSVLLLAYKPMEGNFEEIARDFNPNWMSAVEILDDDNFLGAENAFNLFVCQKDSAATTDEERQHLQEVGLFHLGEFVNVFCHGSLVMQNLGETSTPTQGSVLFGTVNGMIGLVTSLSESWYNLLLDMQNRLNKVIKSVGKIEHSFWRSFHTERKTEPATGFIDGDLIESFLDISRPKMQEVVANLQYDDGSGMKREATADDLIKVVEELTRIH
Experiment notes: IKZF2 HiBiT Assay (Jurkat-IKZF2-HiBiT cell line)
Assay type: cell-based
Measurement conditions: Jurkat-IKZF2-HiBiT cells, 24 hours; read-out: HiBit assay degradation analysis DC50
Could you please report measured DC50 for the items listed next?

Looking up O=C1CCC(N2Cc3c(ccc4c3OCC43CCN(CC4CCC(c5ccccc5)CC4)CC3)C2=O)C(=O)N1 (centres unmarked) , I see its DC50 listed as 50 to 200 nM

Looking up COCc1cccc(CN2CCC3(CC2)COc2c3ccc3c2CN(C2CCC(=O)NC2=O)C3=O)c1 (centres unmarked) , I see its DC50 listed as 200 to 500 nM

Looking up O=C1CCC(N2Cc3c(ccc4c3OCC43CCN(Cc4cnn(S(=O)(=O)c5cccc(Cl)c5F)c4)CC3)C2=O)C(=O)N1 (centres unmarked) , I see its DC50 listed as < 50 nM

Looking up COc1ncc(CN2CCC3(CC2)COc2c3ccc3c2CN(C2CCC(=O)NC2=O)C3=O)cn1 (centres unmarked) , I see its DC50 listed as > 500 nM

Looking up O=C1CCC(N2Cc3c(ccc4c3OCCC43CCN(Cc4ccccc4)CC3)C2=O)C(=O)N1 (centres unmarked) , I see its DC50 listed as > 500 nM

Looking up `Cn1cc2ccc(CN3CCC4(CC3)COc3c4ccc4c3CN([C@H]3CCC(=O)NC3=O)C4=O)cc2n1` , I see its DC50 listed as < 50 nM

Looking up CS(=O)(=O)Nc1cccc(CN2CCC3(CC2)COc2c3ccc3c2CN(C2CCC(=O)NC2=O)C3=O)c1 (centres unmarked) , I see its DC50 listed as > 500 nM

Looking up O=C1CCC(N2Cc3c(ccc4c3OCC43CCN(CC4CCN(c5ccccc5)C4)CC3)C2=O)C(=O)N1 (centres unmarked) , I see its DC50 listed as > 500 nM

Looking up O=C1CCC(N2Cc3c(ccc4c3OCC43CCN(Cc4cccc5c4CCCO5)CC3)C2=O)C(=O)N1 (centres unmarked) , I see its DC50 listed as < 50 nM

Looking up O=C1CCC(N2Cc3c(ccc4c3OCC43CCN(Cc4ccc5oncc5c4)CC3)C2=O)C(=O)N1 (centres unmarked) , I see its DC50 listed as > 500 nM

Looking up O=C1CCC(N2Cc3c(ccc4c3OCC43CCN(Cc4cccc(-n5cccn5)c4)CC3)C2=O)C(=O)N1 (centres unmarked) , I see its DC50 listed as < 50 nM

Looking up O=C1CCC(N2Cc3c(ccc4c3OCC43CCN(Cc4ccn5ccnc5c4)CC3)C2=O)C(=O)N1 (centres unmarked) , I see its DC50 listed as 200 to 500 nM

Looking up `O=C1CC[C@H](N2Cc3c(ccc4c3OCC43CCN(C[C@@H]4C[C@H]4c4ccc(F)cc4)CC3)C2=O)C(=O)N1` , I see its DC50 listed as > 500 nM

Looking up Cn1ccc2ccc(CN3CCC4(CC3)COc3c4ccc4c3CN(C3CCC(=O)NC3=O)C4=O)cc21 (centres unmarked) , I see its DC50 listed as < 50 nM

Looking up O=C1CCC(N2Cc3c(ccc4c3OCC43CCN(CC4CC5CCC4C5)CC3)C2=O)C(=O)N1 (centres unmarked) , I see its DC50 listed as > 500 nM

Looking up `O=C1CC[C@H](N2Cc3c(ccc4c3OCC43CCN(Cc4cccc(-c5cnn(C[C@H]6CCO6)c5)c4)CC3)C2=O)C(=O)N1` , I see its DC50 listed as 50 to 200 nM

Looking up O=C1CCC(N2Cc3c(ccc4c3OCC43CCN(Cc4ccc5cnccc5c4)CC3)C2=O)C(=O)N1 (centres unmarked) , I see its DC50 listed as > 500 nM

Looking up O=C1CCC(N2Cc3c(ccc4c3OCC43CCN(Cc4cnn(-c5cccc(Cl)c5)c4)CC3)C2=O)C(=O)N1 (centres unmarked) , I see its DC50 listed as 50 to 200 nM

Looking up O=C1CCC(N2Cc3c(ccc4c3OCC43CCN(Cc4cnn(S(=O)(=O)c5ccc(F)cc5)c4)CC3)C2=O)C(=O)N1 (centres unmarked) , I see its DC50 listed as > 500 nM

Looking up `Cc1cc(CN2CCC3(CC2)COc2c3ccc3c2CN([C@H]2CCC(=O)NC2=O)C3=O)cc(-c2cnn(C3COC3)c2)c1` , I see its DC50 listed as < 50 nM

Looking up CN1CC2(CCN(Cc3cccc(-c4cnn(C)c4)c3)CC2)c2ccc3c(c21)CN(C1CCC(=O)NC1=O)C3=O (centres unmarked) , I see its DC50 listed as > 500 nM

Looking up Cn1cc2cccc(CN3CCC4(CC3)COc3c4ccc4c3CN(C3CCC(=O)NC3=O)C4=O)c2n1 (centres unmarked) , I see its DC50 listed as 50 to 200 nM

Looking up O=C1CCC(N2Cc3c(ccc4c3OCC43CCN(Cc4cnn(CC5CCOCC5)c4)CC3)C2=O)C(=O)N1 (centres unmarked) , I see its DC50 listed as 200 to 500 nM

Looking up O=C1CCC(N2Cc3c(ccc4c3OCC43CCN(Cc4ccc(C(F)(F)F)cc4)CC3)C2=O)C(=O)N1 (centres unmarked) , I see its DC50 listed as > 500 nM

Looking up CCOc1cccc(CN2CCC3(CC2)COc2c3ccc3c2CN(C2CCC(=O)NC2=O)C3=O)c1 (centres unmarked) , I see its DC50 listed as 50 to 200 nM

Looking up Cn1cnc2ccc(CN3CCC4(CC3)COc3c4ccc4c3CN(C3CCC(=O)NC3=O)C4=O)cc21 (centres unmarked) , I see its DC50 listed as > 500 nM

Looking up `CC(C)(O)Cn1cc(-c2cccc(CN3CCC4(CC3)COc3c4ccc4c3CN([C@H]3CCC(=O)NC3=O)C4=O)c2)cn1` , I see its DC50 listed as < 50 nM

Looking up O=C1CCC(N2Cc3c(ccc4c3OCC43CCN(Cc4csc5ccccc45)CC3)C2=O)C(=O)N1 (centres unmarked) , I see its DC50 listed as < 50 nM

Looking up O=C1CCC(N2Cc3c(ccc4c3OCC43CCN(Cc4ccc(F)c5[nH]ncc45)CC3)C2=O)C(=O)N1 (centres unmarked) , I see its DC50 listed as < 50 nM
